Taken from ChEMBL document CHEMBL3124864.

Assay: Selectivity index of cytotoxicity against mouse RAW264.7 cells to antitubercular activity against Mycobacterium tuberculosis H37Rv ATCC 27294
Format: toxicity, cell-based
Conditions: read-out: Selectivity Index
quantity: selectivity ratio
Give bare numbers.

Request: Can you share its selectivity ratio? I mean this compound: CC(=O)N1CCc2c(sc(NC(=O)c3cccs3)c2C(N)=O)C1
Result: 13

---

Test system: Mycobacterium tuberculosis
Assay: Antitubercular activity against Mycobacterium tuberculosis H37Rv ATCC 27294 after 28 days by two-fold serial dilution method
Format: functional
Conditions: H37Rv ATCC 27294, 672 h
Please respond with reported MIC for every item in the list.

Sample records with MIC:
NC(=O)c1c(NC(=O)C2CC2)sc2c1CCCCCC2    17.1 µM
CC(=O)N1CCc2c(sc(NC(=O)c3ccccc3)c2C(N)=O)C1    72.7 µM
CC[C@@H](CO)NCCN[C@@H](CC)CO [ETHAMBUTOL]    7.64 µM
NC(=O)c1c(NC(=O)C2CCCCC2)sc2c1CCCCCC2    9.33 µM
COc1ccccc1C(=O)Nc1sc2c(c1C(N)=O)CCCCCC2    13.9 µM

Below is a list of compounds. For each, state its recorded MIC.
1. CC(=O)N1CCc2c(sc(NC(=O)c3ccc(C)cc3)c2C(N)=O)C1
2. NC(=O)c1c(NC(=O)c2cccc3ccccc23)sc2c1CCCCCC2
3. CC(=O)Nc1sc2c(c1C(N)=O)CCCCCC2

Result:
1. 69.8 µM
2. 13.2 µM
3. 18.7 µM

For the 3 compounds below, give their MIC values.
1. CC(=O)Nc1sc2c(c1C(N)=O)CCN(C)C2
2. CN1CCc2c(sc(NC(=O)c3cccc([N+](=O)[O-])c3)c2C(N)=O)C1
3. COc1ccccc1C(=O)Nc1sc2c(c1C(N)=O)CCN(C(C)=O)C2

Result:
1. 39.4 µM
2. 34.6 µM
3. 66.8 µM

Please report MIC for every entry that follows.
1. CN1CCc2c(sc(NC(=O)C3CC3)c2C(N)=O)C1
2. NC(=O)c1c(NC(=O)c2cccc([N+](=O)[O-])c2)sc2c1CCCCCC2

Result:
5.57 µM
16.7 µM

---

Exercise: for every item that follows, state its recorded MIC.
Tested on: Mycobacterium tuberculosis
Assay: Antitubercular activity against Mycobacterium tuberculosis H37Rv ATCC 27294 after 28 days by two-fold serial dilution method
Format: functional
Settings: H37Rv ATCC 27294, 672 h
One number for each entry, in µM.

Example compounds with recorded MIC:
O=C(O)c1cn(C2CC2)c2cc(N3CCNCC3)c(F)cc2c1=O    9.41
CC(=O)N1CCc2c(sc(NC(=O)c3cccc4ccccc34)c2C(N)=O)C1    63.5
CN1CCc2c(sc(NC(=O)c3ccc(Oc4ccccc4)cc3)c2C(N)=O)C1    30.6
NC(=O)c1c(NC(=O)c2ccccc2)sc2c1CCCCCC2    15.2
CC(=O)N1CCc2c(sc(NC(=O)c3cccs3)c2C(N)=O)C1    9.15

I have 5 compounds here; please give me MIC for each one.
1. CC(=O)N1CCc2c(sc(NC(=O)c3cccc([N+](=O)[O-])c3)c2C(N)=O)C1
2. CC(=O)N1CCc2c(sc(NC(=O)C3CCCCC3)c2C(N)=O)C1
3. Cc1ccc(C(=O)Nc2sc3c(c2C(N)=O)CCCCCC3)cc1
4. Cc1ccc(C(=O)Nc2sc3c(c2C(N)=O)CCN(C)C3)cc1
5. CC(=O)Nc1sc2c(c1C(N)=O)CCN(C(C)=O)C2

Result:
[64.3, 71.4, 4.54, 37.9, 88.6]

---

System: Mycobacterium tuberculosis
Test: Antitubercular activity against Mycobacterium tuberculosis H37Rv ATCC 27294 after 28 days by two-fold serial dilution method in presence of efflux pump inhibitor verapamil
Format: functional
Settings: H37Rv ATCC 27294, 672 h
So I've got a bunch of compounds here, and I need their MIC values.
Give bare numbers, in µM.

Below: 5 compounds and their reported MIC.
CN1CCc2c(sc(NC(=O)c3cccc4ccccc34)c2C(N)=O)C1    8.53
Cc1ccc(C(=O)Nc2sc3c(c2C(N)=O)CCCCCC3)cc1    2.27
NNC(=O)c1ccncc1    0.72
CN1CCc2c(sc(NC(=O)C3CC3)c2C(N)=O)C1    2.78
COc1ccccc1C(=O)Nc1sc2c(c1C(N)=O)CCCCCC2    6.96

Would you mind giving MIC for every compound in the list below?
1. NC(=O)c1c(NC(=O)c2ccccc2)sc2c1CCCCCC2
2. NC(=O)c1c(NC(=O)C2CC2)sc2c1CCCCCC2
3. NC(=O)c1c(NC(=O)c2cccc([N+](=O)[O-])c2)sc2c1CCCCCC2
4. NC(=O)c1c(NC(=O)C2CCCC2)sc2c1CCCCCC2

Result:
5.06
8.53
16.7
9.73

---

System: Mycobacterium tuberculosis
Test: Antitubercular activity against Mycobacterium tuberculosis H37Rv ATCC 27294 after 28 days by two-fold serial dilution method
Format: functional
Conditions: H37Rv ATCC 27294, 672 h
quantity: MIC (µM)
Give bare numbers, in µM.

// below: answered compounds
NNC(=O)c1ccncc1    0.72
NC(=O)c1c(NC(=O)C2CCCC2)sc2c1CCCCCC2    9.73
CN1CCc2c(sc(NC(=O)c3ccccc3)c2C(N)=O)C1    37.9
COc1ccccc1C(=O)Nc1sc2c(c1C(N)=O)CCN(C)C2    36.1

Then there is this compound:
Request: If you can, please state the reported MIC value of CC(=O)N1CCc2c(sc(NC(=O)c3ccc(Oc4ccccc4)cc3)c2C(N)=O)C1 .
Result: 57.3
